target: CASTOR1 (Homo sapiens, UniProt Q8WTX7, V281A); construct: full-length, residues 1-329, C-terminal His6 tag (pET-28a), E. coli BL21(DE3), homodimer in solution; Ni-NTA and gel filtration; test: isothermal titration calorimetry
Sequence (Q8WTX7 whole entry V281A, the tested form may be a part): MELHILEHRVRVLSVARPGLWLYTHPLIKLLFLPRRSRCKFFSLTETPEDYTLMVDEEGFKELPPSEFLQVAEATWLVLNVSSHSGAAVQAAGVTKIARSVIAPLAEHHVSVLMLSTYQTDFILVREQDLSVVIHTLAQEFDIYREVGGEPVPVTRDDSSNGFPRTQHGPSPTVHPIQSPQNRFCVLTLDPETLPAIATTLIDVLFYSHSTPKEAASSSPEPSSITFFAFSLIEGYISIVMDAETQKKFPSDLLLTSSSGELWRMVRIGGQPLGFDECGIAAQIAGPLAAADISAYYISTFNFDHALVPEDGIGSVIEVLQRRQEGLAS
Parameter: Kd (µM)
Respond numerically; units are µM and should not be typed.

Value of Kd reported for the molecule "N=C(N)NCCC[C@H](N)C(=O)O" is 25.6

----------
Target: A^2A^1A^2A^1
Construct: one polypeptide: CASTOR2 with ACT2 and ACT4 replaced by those of CASTOR1 (CASTOR1 residues 1-5, 76-147, 176-179, 263-329); E. coli
Assay: isothermal titration calorimetry
Settings: 20 °C; 1 mM ligand titrated into 70 μM protein; single-site model
From the text: isothermal titration calorimetry on A^2A^1A^2A^1
Parameter: Kd

Case N=C(N)NCCC[C@H](N)C(=O)O [arginine] , A^2A^1A^2A^1, Kd recorded as 8.6 µM

----------
biological target: CASTOR1 (Homo sapiens); construct: full-length, residues 1-329, C-terminal His6 tag (pET-28a), E. coli BL21(DE3), homodimer in solution; Ni-NTA and gel filtration; assay: isothermal titration calorimetry
Parameter: Kd (µM)
Respond numerically; units are µM and should not be typed.

Value of Kd reported for the molecule "N=C(N)NCCC[C@H](N)C(=O)O" is 5.5

----------
target: CASTOR1 (Homo sapiens, UniProt Q8WTX7, F303A); construct: full-length, residues 1-329, C-terminal His6 tag (pET-28a), E. coli BL21(DE3), homodimer in solution; Ni-NTA and gel filtration; experiment: isothermal titration calorimetry
Sequence (Q8WTX7 whole entry F303A, the tested form may be a part): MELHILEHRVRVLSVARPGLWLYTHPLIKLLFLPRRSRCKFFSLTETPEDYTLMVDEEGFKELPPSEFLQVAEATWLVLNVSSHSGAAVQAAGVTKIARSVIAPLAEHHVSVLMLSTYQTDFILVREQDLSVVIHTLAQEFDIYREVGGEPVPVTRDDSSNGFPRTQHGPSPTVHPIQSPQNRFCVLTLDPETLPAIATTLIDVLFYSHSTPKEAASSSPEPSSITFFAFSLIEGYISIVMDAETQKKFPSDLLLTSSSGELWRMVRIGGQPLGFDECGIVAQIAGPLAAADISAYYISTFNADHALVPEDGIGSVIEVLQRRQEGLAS
Parameter: pKd
Please report pKd as the negative decimal logarithm of the molar concentration, giving only the number.

Value of pKd reported for the compound "N=C(N)NCCC[C@H](N)C(=O)O" is 4.75

----------
target: A^2A^2A^2A^1; construct: one polypeptide: CASTOR2 with ACT4 replaced by ACT4 of CASTOR1 (ACT4 of CASTOR1 = residues 176-179 and 263-329); E. coli; test: isothermal titration calorimetry; conditions: 20 °C; 1 mM ligand titrated into 70 μM protein; single-site model
Parameter: Kd (µM)
Respond numerically; units are µM and should not be typed.

Value of Kd reported for the molecule "N=C(N)NCCC[C@H](N)C(=O)O" is 40.2

----------
target: CASTOR1 (Homo sapiens, UniProt Q8WTX7, L113A); construct: full-length, residues 1-329, C-terminal His6 tag (pET-28a), E. coli BL21(DE3), homodimer in solution; Ni-NTA and gel filtration; experiment: isothermal titration calorimetry
Sequence (Q8WTX7 whole entry L113A, the tested form may be a part): as the sequence (Q8WTX7 whole entry V281A, the tested form may be a part) above, with L113A, A281V counted along it
Parameter: Kd (µM)
Respond numerically; units are µM and should not be typed.

Value of Kd reported for the compound N=C(N)NCCC[C@H](N)C(=O)O [arginine] is 160
